The reported numbers originate from patent US20240158446A1.

# Subject Of Test: UniProt P01116
# Sequence (P01116 whole entry): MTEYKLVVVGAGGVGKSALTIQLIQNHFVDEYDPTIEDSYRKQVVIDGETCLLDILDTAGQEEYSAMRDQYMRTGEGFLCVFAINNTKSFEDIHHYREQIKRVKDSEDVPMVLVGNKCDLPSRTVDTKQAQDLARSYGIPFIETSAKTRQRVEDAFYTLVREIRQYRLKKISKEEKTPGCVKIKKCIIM
# Method Notes: Binding to KRAS by surface plasmon resonance (SPR), Single Cycle Kinetics
# Cond: SPR Single Cycle Kinetics, GDP-bound KRAS wild-type protein, 1:1 binding model; read-out: KRAS KD
pKd: −log10 of the molar value. *1 amine or outer side, *2 acyl side, *3 side chain or, on linkers, in order; H or OH if unused. Where a SMILES comes first, the peptide text is derived from it. Bridges are numbered along the chain shown (N, C = ends). [ ]: non-standard residue; d: D form. The star is where a group is joined. X25 = O=C([C@H](Cc1ccc(C(F)(F)F)cc1)N(CCC(F)(F)F)[*:1])[*:2]; hPhe(3-Cl-4-CF3) = N[C@@H](CCc1ccc(C(F)(F)F)c(Cl)c1)C(=O)O; NPrPhe(4-CF3) = CCCN[C@@H](Cc1ccc(C(F)(F)F)cc1)C(=O)O; NMeGly(cPent) = CN[C@H](C(=O)O)C1CCCC1; NMeD = CN[C@@H](CC(=O)O)C(=O)O; NMeL = CN[C@@H](CC(C)C)C(=O)O; NEtAla = CCN[C@@H](C)C(=O)O; Morpholide = C1CN(*)CCO1; Ac5c = NC1(C(=O)O)CCCC1; Aze = O=C(O)[C@@H]1CCN1; Sar = CNCC(=O)O
Binary classification by pKd, with 9 as an inclusive lower bound for yes; all other cases are no.

# bool: pKd of "CCC[C@H]1C(=O)N[C@@H]([C@@H](C)CC)C(=O)N(C)CC(=O)N(C)[C@H]2C/C=C\CCN(C2=O)[C@@H](Cc2ccc(C(F)(F)F)cc2)C(=O)N(C)CC(=O)N[C@@H](CCc2ccc3ccn(C)c3c2)C(=O)N2C[C@H](OCC)C[C@H]2C(=O)NC2(CC(C)(C)C2)C(=O)N(C)[C@@H](C2CCCC2)C(=O)N(C)[C@H](C(=O)N(C)C)CC(=O)N1C" >= 9 no

# bool: pKd of CCCN1C(=O)[C@@H]2CCN2C(=O)[C@H](C)N(CC)C(=O)[C@H]([C@@H](C)CC)NC(=O)[C@H](CC(C)C)N(C)C(=O)C[C@@H](C(=O)N2CCOCC2)N(C)C(=O)[C@H](C2CCCC2)N(C)C(=O)C2(CCCC2)NC(=O)[C@@H]2CCCN2C(=O)[C@H](CCc2ccc(C(F)(F)F)c(Cl)c2)NC(=O)CN(C)C(=O)[C@@H]1Cc1ccc(C(F)(F)F)cc1 [PP0152] ([NMeL]I[NEtAla][Aze][NPrPhe(4-CF3)][Sar][hPhe(3-Cl-4-CF3)]P[Ac5c][NMeGly(cPent)][NMeD]-Morpholide; lactam N-11) >= 9 no

# bool: pKd of CC[C@H](C)[C@@H]1NC(=O)[C@H](CC(C)C)N(C)C(=O)C[C@@H](C(=O)N2CCOCC2)N(C)C(=O)[C@H](C2CCCC2)N(C)C(=O)C2(CCCC2)NC(=O)[C@@H]2CCCN2C(=O)[C@H](CCc2ccc(C(F)(F)F)c(Cl)c2)NC(=O)CN(C)C(=O)[C@H](Cc2ccc(C(F)(F)F)cc2)N(CCC(F)(F)F)C(=O)CN(C)C(=O)CN(C)C1=O [PP0131] ([NMeL]I[Sar][Sar][X25][Sar][hPhe(3-Cl-4-CF3)]P[Ac5c][NMeGly(cPent)][NMeD]-Morpholide; lactam N-11) >= 9 yes
